test system: MS2 coat protein; assay: apparent Kd, MS2 coat protein; higher = weaker binding; RNA-MaP array; conditions: ligand present: theophylline; designed as: ON switch for theophylline
quantity_name: apparent Kd (nM)

{"sequence_string": "ACCUUACAUGAGGAUCACCCAUGUCGUGAUACCAGAAACCACGUAUUCCCUUGGCAGCACACCCGUGAUGAGAUUGUCGGUUUUG", "tested_system": "MS2 coat protein", "quantity_name": "apparent Kd", "measured": 88}
{"sequence_string": "GCAUAGUAAAAUGAUACCAGAGUCAAAACAGACAUGAGGAUCACCCAUGUGCAUAUACAACUCCCUUGGCAGCAUUAAAACGGGA", "tested_system": "MS2 coat protein", "quantity_name": "apparent Kd", "measured": 13}
{"sequence_string": "CACUAUGAGGUCGAUACCAGUACUGAGUUGUACAUGAGGAUCACCCAUGUAAAUGUUCGCUACCCUUGGCAGCGAUAACAUUGCA", "tested_system": "MS2 coat protein", "quantity_name": "apparent Kd", "measured": 554}
{"sequence_string": "AACAGUAUUAUAGAUACCAGCAGGUCAUAAGACAUGAGGAUCACCCAUGUGAAUGAGGUAUGCCCUUGGCAGCUAUGAGGUCCUC", "tested_system": "MS2 coat protein", "quantity_name": "apparent Kd", "measured": 128}
{"sequence_string": "AACAGACGAGACGAUACCAGUCUCUUAGCGCACAUGAGGAUCACCCAUGUUGGCAAGCUCGACCCUUGGCAGCGUACCUUUGAUC", "tested_system": "MS2 coat protein", "quantity_name": "apparent Kd", "measured": 14}
{"sequence_string": "GAUGCACAUGAGGAUCACCCAUGUCCUGAUACCAGAACGCGACUUUUCCCUUGGCAGCAGAAUUCACUUUUUUACAUUCAUACUG", "tested_system": "MS2 coat protein", "quantity_name": "apparent Kd", "measured": 22.9}

###

Recorded apparent Kd by entry
system: MS2 coat protein; experiment: apparent Kd, MS2 coat protein; higher = weaker binding; RNA-MaP array; details: designed as: ON switch for flavin mononucleotide; no ligand
quantity_name: apparent Kd

{"sequence_string": "UCUCAUAUGGAAGGAUAUCAUACCUUGUCGAGAUGAGAAGGUCCGUAUGGACAUAACAUGAGGAUCACCCAUGUUUCUUGUGUU", "measured": "188 nM"}
{"sequence_string": "ACAUAUUCCAGAGGAUAUUGUGGUAUCCAGUUAAGGAGAUCUUACAUGAGGAUCACCCAUGUGGACAAGAAGGCUGAACGCUCC", "measured": "21.6 nM"}
{"sequence_string": "AGAACCCAGUAAGGAUAUGAUGAGUCUAUACAACAUGAGGAUCACCCAUGUCCGAGGAAACUAGAUCAGAAGGUACAAGAAAAG", "measured": "73.8 nM"}
{"sequence_string": "CCGAUAAUCAAACAUGAGGAUCACCCAUGUUCUGGACGGUUCGAGGAUAUGGCACAAGGUAUCUUCCAGAAGGCGAGCCGGUGA", "measured": "8.04 nM"}
{"sequence_string": "UUUGCAGUCGAGAAGGCAAACACAUGAGGAUCACCCAUGUAGACGAGGUAUGUUAUUUCGGGAGUUGAGGAUAUCGUGGUAGGU", "measured": "27.8 nM"}
{"sequence_string": "UAACAUUGCUAGAAGGGCGGUCAUCAGAUGGCCGCAGGAUAUAGACAUGAGGAUCACCCAUGUGAAGGGCAGGUUGUUCUAGUU", "measured": "18.1 nM"}
{"sequence_string": "CGACAGCACAUAGGAUAUCAGCAAGAACUAACAUGAGGAUCACCCAUGUAUGGAUGAACAUAAAAUGAGAAGGAAGGCGAAUUA", "measured": "22.2 nM"}
